# System: MDA-MB-231 breast
# MEASUREMENT DESCRIPTION: NCI tumour cell line growth inhibition, 48 h
ATTRIBUTE MEASURED: GI50

Worked set:
CCN(CC)CCCC(C)Nc1c2ccc(Cl)cc2nc2ccc(O)cc12 (stereo not given)
2000 nM
COc1ccc(-c2nc(-c3nc4ccc(Cl)cc4[nH]3)c3ccccn23)cc1
2770 nM
Cc1ccc(C(=O)N(CCCN)C(c2oc3cc(Cl)ccc3c(=O)c2Cc2ccccc2)C(C)C)cc1 (stereo not given)
< 10 nM
CC/C=C\C[C@H](F)C/C=C1/C(=O)C=C[C@@H]1C/C=C\CCCC(=O)O
12700 nM

Attention now turns to another entry.
*Q* Using the record for N#CC(C#N)=C1Nc2ccccc2S1 , report its GI50.
*A* 43400 nM

These data points were gathered from PubChem BioAssay (NCI).
